Listing of recorded PBM binding z-score by entry.
test system: RARg homodimer (NR concentration 270 nM); experiment: PBM binding z-score (relative to random genomic background probes); higher = stronger binding; sequences stand for … in GC…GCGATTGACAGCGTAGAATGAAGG
Provide a numeric answer; units are not to be included.

1) CAAACTCGGTCAAGAGGTCAAAGTCCGCTTCCCG; 6.13

In: Given the sequence CTCGAAAGGTCGTGCTCGGGTGAGTATACCAAAC , what is its reported PBM binding z-score?
Out: 3.77

In: Given the sequence TCATATAGGCAAATGCTAGGTGAAAGTCCGATCT , what is its reported PBM binding z-score?
Out: 0.0347

In: Given the sequence GCATATGGGTAATACAAGGTGAAAGTCCGATTGT , what is its reported PBM binding z-score?
Out: 0.402

In: Given the sequence GCTTGTAGATCAATGTTAAGAAAGACTAAGCTAA , what is its reported PBM binding z-score?
Out: -0.155

---

system: LXRb:RXRa (NR concentration 270 nM, RXRa partner concentration 90 nM); test: PBM binding z-score (relative to random genomic background probes); higher = stronger binding; sequences stand for … in GC…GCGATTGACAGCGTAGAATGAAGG
measurement-type: PBM binding z-score

Below, 2 sequences whose answers are already recorded.
1. GGAACGAAGGCAAGTTGATAGCAGAGTTTGATGG; -1.13
2. CATACTAGGTCAAGAGGTCAAAGTCCGCTTCCCG; 5.6

In: Given the sequence GGTAGTTGGTCAGTAAAAGGTCACACACCGGTCG , what is its reported PBM binding z-score?
Out: 4.07

In: Given the sequence CGTCCAGGGTCAAGGTCAGTGAAAGAGACTCGAA , what is its reported PBM binding z-score?
Out: 4.58

In: Given the sequence TCTCGCAGGACACGAAGGTCAGAGCTTTCCAGAG , what is its reported PBM binding z-score?
Out: 1.43

In: Given the sequence GCTAGCTGGTCAGTAAAAGGTCACACACCGGTCG , what is its reported PBM binding z-score?
Out: 3.88

In: Given the sequence GCTCGGAGGACAAGGTCAGTGCTTTGTCCGTAGA , what is its reported PBM binding z-score?
Out: 1.09

In: Given the sequence CGTCCAAGGTCAGAGAGGTGAGTGAATGCCGAGT , what is its reported PBM binding z-score?
Out: 2.43

In: Given the sequence TAGCCTAGGTCATGGGGGCCAGTATAGTGTCGGC , what is its reported PBM binding z-score?
Out: 4.86

In: Given the sequence CCTGCTAGGTCAATGGTCATCTAAAGCAGCTCGC , what is its reported PBM binding z-score?
Out: 1.68

In: Given the sequence CCTACTGGGCCACGAAAGATCATTGATTCAGTGA , what is its reported PBM binding z-score?
Out: -0.437

---

test system: PPARg:RXRa 30nM:10nM, anti-RXR (NR concentration 30 nM, RXRa partner concentration 10 nM); test: PBM binding z-score (relative to random genomic background probes); higher = stronger binding; sequences stand for … in GC…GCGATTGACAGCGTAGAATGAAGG
measurement-type: PBM binding z-score
Provide a numeric answer; units are not to be included.

1. CAAACTATGTCAAGAGGTCAAAGTCCGCTTCCCG; 4.55
2. GGAACGAGGGCAAAGTTGATTGCATCTGTCGACG; 5.63
3. CCTAGCAGGCCAATCCGGGTCACTCAAGGCTTGA; -0.565

In: Notebook entry, PPARg:RXRa 30nM:10nM, anti-RXR (NR concentration 30 nM, RXRa partner concentration 10 nM) assay: PBM binding z-score of TCGAGTAGGTTACCAATGGGGCATCCAGCTTTCT = ?
Out: 1.25

In: Notebook entry, PPARg:RXRa 30nM:10nM, anti-RXR (NR concentration 30 nM, RXRa partner concentration 10 nM) assay: PBM binding z-score of CCTGCTACGTCAATGGTCAGCTAAAGCAGCTCGC = ?
Out: -0.833

---

test system: PPARa:RXRa (NR concentration 270 nM, RXRa partner concentration 90 nM); assay: PBM binding z-score (relative to random genomic background probes); higher = stronger binding; sequences stand for … in GC…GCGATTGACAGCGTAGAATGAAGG
Listing of recorded PBM binding z-score by entry.
Provide a numeric answer; units are not to be included.

Below, 3 sequences whose answers are already recorded.
1. CCTGCTAGGTCAATGGTCAGCCAAAGCAGCTCGC; 3.1
2. GGAACGAGGGCAACTTGATAGCAGAGTTTGATGG; 1.53
3. GCATATAGGTAATACAAGGTGAAAGTCCGATTGT; 1.68

Now consider the entry below.
In: Given the sequence CGTCCAAGGTCAGGGTCAGTGAAAGAGACTCGAA , what is its reported PBM binding z-score?
Out: 5.11

---

test system: PPARg:RXRa 90nM:30nM, anti-RXR (NR concentration 90 nM, RXRa partner concentration 30 nM); assay: PBM binding z-score (relative to random genomic background probes); higher = stronger binding; sequences stand for … in GC…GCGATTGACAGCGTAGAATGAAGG
Listing of recorded PBM binding z-score by entry.

Below, 6 sequences whose answers are already recorded.
1) CATACAGGGTCAGCTAGGCCAGAATAGGGACGGC; 2
2) AGTCAAAGTTCAGGACGAGGTAACATAAAGCACG; 4.16
3) CCTACTCGGCCATCAGGTCATTGATATCAACGTT; 1.02
4) AGCCAAAGTTCATCTAGGTAACGTAAGATATGCT; 4.72
5) CGAACTAGGTCAGAACAGGACAGGGAAGGATGAT; 3.65
6) GCAGACAGGTGAAACGCTGGTAACTCAGGGTGGC; -0.171

In: Given the sequence ACTATTAGTTGACTTAGGGCGACCGATACGACGC , what is its reported PBM binding z-score?
Out: 0.183

In: Given the sequence AGAATGAGGTTATTAAGATCAAGGAATTGCGGTC , what is its reported PBM binding z-score?
Out: 1.6

In: Given the sequence TATTGTAGATCAAGCAGGTTAAGAAAGCCTGAGT , what is its reported PBM binding z-score?
Out: 0.218

In: Given the sequence TGTCAAAGTTCAAAGGTAACTTAAGTATCCACAC , what is its reported PBM binding z-score?
Out: 7.46

In: Given the sequence ACTATTAGTTGAATTAGGGCAACCGATACGACGC , what is its reported PBM binding z-score?
Out: 1.04

In: Given the sequence AGAATGAGGTTATACTTAGATCAGGGAAGAAAGT , what is its reported PBM binding z-score?
Out: 1.17

In: Given the sequence GATACAGGGTCAGCTAGAGGCCAGAGTATGGAAA , what is its reported PBM binding z-score?
Out: 2.06

In: Given the sequence AGAATGAGGTTATTCGTAGATCAGGGAAGAAAGT , what is its reported PBM binding z-score?
Out: 1.2

In: Given the sequence CCTCGGAGGACAGAAGGTCAGTGCTGTCCGCTTT , what is its reported PBM binding z-score?
Out: -0.242

In: Given the sequence CCTACTGGGCCAGAGGTCATTGATTCCAATGCTC , what is its reported PBM binding z-score?
Out: 9.4

In: Given the sequence TCATATAGGTAAAAGGTGAAAGTTGGTGTGGTAA , what is its reported PBM binding z-score?
Out: 8.75

In: Given the sequence CCTCGGAAGACAACAGGAGGTCAGAGCTGCCAGA , what is its reported PBM binding z-score?
Out: -0.387

In: Given the sequence GCTGCTAGGTCAGGTTGCTCAGCTAACGGGTACG , what is its reported PBM binding z-score?
Out: 0.106

In: Given the sequence TCTGCTAGGCCAGTTGGTCAGCTAACGAGCTGCC , what is its reported PBM binding z-score?
Out: 0.446

In: Given the sequence CGTCCAAGGTCAGAGAGATCAGTGAATGCCGAGT , what is its reported PBM binding z-score?
Out: 1.22

In: Given the sequence CCAAGTAGGTTATGGGGCATTCAGGCAACGGTGA , what is its reported PBM binding z-score?
Out: 5.84

In: Given the sequence GCTGCTAGGTCAACTGATGGTCAGCTATAGCTCG , what is its reported PBM binding z-score?
Out: 2.16

In: Given the sequence AGAACGAGGGCAATGAGTTGATAGCACGGGTGGC , what is its reported PBM binding z-score?
Out: 0.43

In: Given the sequence ACACACAGGTGAGTGAAGGTAACTCAGCTGGACG , what is its reported PBM binding z-score?
Out: -0.278

In: Given the sequence TTACCAAGGTGTGCTGAGGTCGTTGATCCAACTC , what is its reported PBM binding z-score?
Out: 0.00377
